Molecular target: T1, Human CD3eg linker (human)
T1 construct: Single-chain construct; also called recombinant human CD3
T1 chain: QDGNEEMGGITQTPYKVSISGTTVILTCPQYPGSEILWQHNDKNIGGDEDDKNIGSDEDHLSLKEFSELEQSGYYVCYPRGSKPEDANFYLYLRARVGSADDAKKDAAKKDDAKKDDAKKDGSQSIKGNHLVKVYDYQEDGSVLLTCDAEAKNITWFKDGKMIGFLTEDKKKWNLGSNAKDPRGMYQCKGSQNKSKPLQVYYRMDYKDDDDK
Assay: SPR; fold vs parent H183/L072
Reported fold change of affinity is given for each of the following binders.
Answer format: numeric, fold implied, no suffix.

Q. Give fold change of affinity for the following binder: H183/L072 VL L27bV (antibody, name in Kabat numbering, V domains shown) VH: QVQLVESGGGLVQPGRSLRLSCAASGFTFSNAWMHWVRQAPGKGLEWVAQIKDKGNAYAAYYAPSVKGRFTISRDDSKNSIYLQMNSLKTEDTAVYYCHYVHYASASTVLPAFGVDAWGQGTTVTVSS VL: DIVMTQSPLSLPVTPGEPASISCQASQEVVHMNRNTYLHWYQQKPGQAPRLLIYKVSNRFPGVPDRFSGSGSGTDFTLKISRVEAEDVGVYYCAQGTSVPFTFGQGTKLEIK
A. 1.7

Q. Give fold change of affinity for the following binder: H183/L072 VL V27cT (antibody, name in Kabat numbering, V domains shown) VH: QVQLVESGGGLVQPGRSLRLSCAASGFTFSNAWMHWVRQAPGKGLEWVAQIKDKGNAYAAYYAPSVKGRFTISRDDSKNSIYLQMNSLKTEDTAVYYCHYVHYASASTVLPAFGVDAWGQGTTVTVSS VL: DIVMTQSPLSLPVTPGEPASISCQASQELTHMNRNTYLHWYQQKPGQAPRLLIYKVSNRFPGVPDRFSGSGSGTDFTLKISRVEAEDVGVYYCAQGTSVPFTFGQGTKLEIK
A. 0.8

Q. Give fold change of affinity for the following binder: H183/L072 VL L27bT (antibody, name in Kabat numbering, V domains shown) VH: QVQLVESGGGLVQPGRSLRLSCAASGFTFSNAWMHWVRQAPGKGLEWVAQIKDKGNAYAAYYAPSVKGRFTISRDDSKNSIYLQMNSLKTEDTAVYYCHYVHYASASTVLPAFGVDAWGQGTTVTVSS VL: DIVMTQSPLSLPVTPGEPASISCQASQETVHMNRNTYLHWYQQKPGQAPRLLIYKVSNRFPGVPDRFSGSGSGTDFTLKISRVEAEDVGVYYCAQGTSVPFTFGQGTKLEIK
A. 0.6

Q. Give fold change of affinity for the following binder: H183/L072 VL H27dE (antibody, name in Kabat numbering, V domains shown) VH: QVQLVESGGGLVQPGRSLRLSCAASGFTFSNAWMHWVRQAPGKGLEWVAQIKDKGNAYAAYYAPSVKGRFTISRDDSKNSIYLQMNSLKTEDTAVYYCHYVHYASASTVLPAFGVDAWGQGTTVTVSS VL: DIVMTQSPLSLPVTPGEPASISCQASQELVEMNRNTYLHWYQQKPGQAPRLLIYKVSNRFPGVPDRFSGSGSGTDFTLKISRVEAEDVGVYYCAQGTSVPFTFGQGTKLEIK
A. 0

Q. Give fold change of affinity for the following binder: H183/L072 VL S93H (antibody, name in Kabat numbering, V domains shown) VH: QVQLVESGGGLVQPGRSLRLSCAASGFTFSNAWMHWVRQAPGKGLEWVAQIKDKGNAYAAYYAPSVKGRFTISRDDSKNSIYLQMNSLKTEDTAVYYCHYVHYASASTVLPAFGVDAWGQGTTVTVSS VL: DIVMTQSPLSLPVTPGEPASISCQASQELVHMNRNTYLHWYQQKPGQAPRLLIYKVSNRFPGVPDRFSGSGSGTDFTLKISRVEAEDVGVYYCAQGTHVPFTFGQGTKLEIK
A. 0.9

Reference source: patent US20210388087A1
